Molecular target: T1, human CD47 expressed on cells (CD47 expressing CHO cells, Jurkat, HL60, DLD1, Raji) (human, UniProt Q08722 19-292)
T1 construct: also called CHO-CD47; IAP
Assay: flow cytometry on human red blood cells, donor 1, MFI
METRIC_NAME: EC50 (read off the curve)

Previously resolved entries follow.
binder="H-ABU 43 (antibody, V domains shown, Humanized antibody) VH: QVQLVQSGAEVKKPGASVKVSCKTSGYSFTNYWMQWVRQAPGQGLEWMGMIDPSDSESRLNQKFKDRVTMTRDTSTSTAYMELSSLRSEDTAVYYCARRGSPMITSFAYWGQGTLVTVSS VL: DVQITQSPSSLSASVGDRVTITCRASKNIGKYLAWFQQKPGKTNKLLIYSGSTLQSGIPSRFSGSGSGTDFTLTISSLQPEDFATYYCQQHNEYPYTFGGGTKVEIK" value_measured="~1 nM"
binder="H-ABU 7 (antibody, V domains shown) VH: QVQLVQSGAEVKKPGASVKVSCKASGYTFTDHYINWVRQAPGQRLEWMGWIYLGSGNTKYNEKFKGRVTITRDTSASTAYMELSSLRSEDTAVYYCARREDRGFAYWGQGTLVTVSS VL: DIVMTQSPDSLAVSLGERATINCKSSQSLLSSSQKNYLAWYQQKPGQPPKLLIYWASVRDSGVPDRFSGSGSGTDFTLTISSLQAEDVAVYYCQQYYSYPLTFGQGTKVEIK" value_measured="~1 nM"
binder="Positive 3 (analogue antibody) (antibody, V domains shown) VH: QMQLVQSGAEVKKTGSSVKVSCKASGFNIKDYYLHWVRQAPGQALEWMGWIDPDQGDTEYAQKFQDRVTITRDRSMSTAYMELSSLRSEDTAMYYCNAAYGSSSYPMDYWGQGTTVTV VL: NIQMTQSPSAMSASVGDRVTITCKASQDIHRYLSWFQQKPGKVPKHLIYRANRLVSGVPSRFSGSGSGTEFTLTISSLQPEDFATYYCLQYDEFPYTFGGGTKVEIK" value_measured="~1 nM"

Problem: Can you look up the measured EC50 (read off the curve) of H-ABU44 (antibody, V domains shown) VH: QVQLVQSGAEVKKPGASVKVSCKASGYSFTNYHIHWVRQAPGQRLEWIGWIYPGSGNTKYNEKFKGRATLTADTSASTAYMELSSLRSEDTAVYYCARYDYDLYLHSWGQGTLVTVSS VL: DIQITQSPSSVSASVGDRVTITCHASQNINVWLSWYQQKPGKAPKLLIYKASNLHTGVPSRFSGSGSGTGFTLTISSLQPEDFATYYCQQGQSYPLTFGQGTKLEIK for me?
Result: ~0.2 nM

Problem: Requested read-out: EC50 (read off the curve). Entry: H-ABU 41 (antibody, V domains shown, Humanized antibody) VL: DVQITQSPSSLSASVGDRVTITCRASKNIGKYLAWFQQKPGKTNKLLIYSGSTLQSGIPSRFSGSGSGTDFTLTISSLQPEDFATYYCQQHNEYPYTFGGGTKVEIK VH: QVQLQQSGAEVKKPGASVKVSCKTSGYSFTNYWMQWVRQAPGQGLEWIGMIDPSDSESRLNQKFKDKATLTVDKSTSTAYMELSSLRSEDTAVYYCARRGSPMITSFAYWGQGTLVTVSS
Result: ~1 nM

Problem: For H-ABU 10 (antibody, V domains shown) VL: DIVMTQSPDSLAVSLGERATINCKSSQSLVSSSQKNYLAWYQQKPGQPPKLLIYWASVRDSGVPDRFSGSGSGTDFTLTISSLQAEDVAVYYCQQYYSYPLTFGQGTKVEIK VH: QVQLVQSGAEVKKPGASVKVSCKASGYTFTDNYINWVRQAPGQRLEWMGWIYLGSGNTKYNEKFKGRVTITRDTSASTAYMELSSLRSEDTAVYYCARREERGFAPWGQGTLVTVSS , what is its reported EC50 (read off the curve)?
Result: ~3 nM

Problem: // EC50 (read off the curve) lookup, key: H-ABU 11 (antibody, V domains shown) VH: QVQLVQSGAEVKKPGASVKVSCKASGYTFTDFYINWVRQAPGQRLEWMGWIYLGSGNTKYNEKFKGRVTITRDTSASTAYMELSSLRSEDTAVYYCARREERGFAYWGQGTLVTVSS VL: DIVMTQSPDSLAVSLGERATINCKSSQSLLSSSQKNYLAWYQQKPGQPPKLLIYWASTRDSGVPDRFSGSGSGTDFTLTISSLQAEDVAVYYCQQFYSYPLTFGQGTKVEIK
Result: ~1 nM
